Tested on: TO-N3 (biotin conjugate)
ASSAY_PROTOCOL: pull-down binding Z-score (relative to library population); higher = stronger binding
CONDITION_LABEL: RNA library: Library-2
Classification field: criterion met = pull-down binding Z-score at or over 0.3; criterion not met = pull-down binding Z-score under 0.3.

Below are worked cases with known answers.
GCUUAUACGUGCCCUUGCU [hsa-mir-8075] :: criterion met
CAAAUGUGCCUUUCAACUCUCAUGAAGUGUGAUCAUUGUGGUGAAACUUCAUGGCAGACGGGCGAUUUUG :: criterion not met
GGACCAGGAACUAAUCAGACAAGGAACUGAUUACAAACAUUGGCC [DMSMaPseq_invitro_SARS-CoV-2_Motif_522] :: criterion met
GACGGUGGGGGCCACGCUGACAGCCGC [hsa-mir-6804] :: criterion met
UGCCAUUUGUCAUGAUGGAAAAGCACACUUUCCUCGUGAAGGUGUCUUUGUUUCAAAUGGCA [SHAPE_invivo_SARS-CoV-2_Motif_465] :: criterion not met
UGGGUUGGGUUGGGUUGGGUUGGGUUGGGU [G4_r(UGGGU)6] :: criterion met

Is reported pull-down binding Z-score greater than or equal to 0.3 here: GGCAACUAGCACUCUCCAAGGGUGUUCACUUUGUUUGCAACUUGCUGUUGUUGUUUGUAACAGUUUACUCACACCUUUUGCUCGUUGCU [SHAPE_invitro_SARS-CoV-2_Motif_465] criterion not met

Is reported pull-down binding Z-score greater than or equal to 0.3 here: UGGGGUUGGGGUUGGGGUUGGGGUUGGGGUUGGGGUUGGGGUUGGGGU [G4_r(UGGGGU)8] criterion met

Is reported pull-down binding Z-score greater than or equal to 0.3 here: GAUCUAAAACCAGUC [DMSMaPseq_invitro_SARS-CoV-2_Motif_121] criterion not met

Is reported pull-down binding Z-score greater than or equal to 0.3 here: UUUGUCAUUAAAGUAAUGCAAA [hsa-mir-548m] criterion not met

Is reported pull-down binding Z-score greater than or equal to 0.3 here: GCAGUGGCUAACUAACAUCUUUGGCACUGU criterion not met

Is reported pull-down binding Z-score greater than or equal to 0.3 here: GUUCUUCUUCGUAAGAAC criterion not met

Is reported pull-down binding Z-score greater than or equal to 0.3 here: CCAUGGGACAGGAACAGGAUACACCAUGG [IAV_invivo_PB1_2_Motif_4+IAV_invivo_PB1_2_Motif_4] criterion not met

Is reported pull-down binding Z-score greater than or equal to 0.3 here: GGUUGGGGUGGGCUGCCUGUGGACCAAUC [hsa-mir-4525] criterion met

Is reported pull-down binding Z-score greater than or equal to 0.3 here: ACACUUCCUAUAUGUAUCCACAUAUAUAUAGU [hsa-mir-568] criterion not met

Is reported pull-down binding Z-score greater than or equal to 0.3 here: AAAUUCUUGGAACUGUUUCUUGGAAUUU criterion not met

Is reported pull-down binding Z-score greater than or equal to 0.3 here: AAAUAAGUAUGAUACUUACCUG [U1snRNP5ss-4] criterion not met
